Data provenance is patent US5089623A.

The following compounds are shown together with reported LC50 MW values.
System: Maize weevil [Sitophilus Zeamais (Motschulsky)]
testDetails: Maize weevil test (MW)
Assay type: in vivo
conditionSummary: adult weevils, treated corn seeds, 48 hours, percent in solution
reportedEndpoint: LC50 MW

>  <compound>
CC(C)C(=Nc1ccc(OCC(F)(F)F)cc1)OCc1ccc(F)c(Oc2ccccc2)c1 [Compound 422]

>  <testResult>
> 0.01%

$$$$
>  <compound>
CCc1ccc(N=C(OCc2cccc(Oc3ccc(F)cc3)c2)C(C)C)cc1Cl [Compound 438]

>  <testResult>
> 0.01%

$$$$
>  <compound>
CSc1ccc(N=C(OCc2cccc(Oc3ccccc3)c2)C(C)C)cc1 [Compound 142]

>  <testResult>
> 0.01%

$$$$
